target-of-assay: human p110α/p85α (PI3Kα) (Homo sapiens, UniProt P42336)
Construct: Full-length human p110α was expressed either in a complex with full-length human p85α (for HTS, biochemistry and HDX-MS); 6xHis tag followed by TEV protease site (N); host or cells: Spodoptera frugiperda Sf9, baculovirus
Sequence (P42336 whole entry): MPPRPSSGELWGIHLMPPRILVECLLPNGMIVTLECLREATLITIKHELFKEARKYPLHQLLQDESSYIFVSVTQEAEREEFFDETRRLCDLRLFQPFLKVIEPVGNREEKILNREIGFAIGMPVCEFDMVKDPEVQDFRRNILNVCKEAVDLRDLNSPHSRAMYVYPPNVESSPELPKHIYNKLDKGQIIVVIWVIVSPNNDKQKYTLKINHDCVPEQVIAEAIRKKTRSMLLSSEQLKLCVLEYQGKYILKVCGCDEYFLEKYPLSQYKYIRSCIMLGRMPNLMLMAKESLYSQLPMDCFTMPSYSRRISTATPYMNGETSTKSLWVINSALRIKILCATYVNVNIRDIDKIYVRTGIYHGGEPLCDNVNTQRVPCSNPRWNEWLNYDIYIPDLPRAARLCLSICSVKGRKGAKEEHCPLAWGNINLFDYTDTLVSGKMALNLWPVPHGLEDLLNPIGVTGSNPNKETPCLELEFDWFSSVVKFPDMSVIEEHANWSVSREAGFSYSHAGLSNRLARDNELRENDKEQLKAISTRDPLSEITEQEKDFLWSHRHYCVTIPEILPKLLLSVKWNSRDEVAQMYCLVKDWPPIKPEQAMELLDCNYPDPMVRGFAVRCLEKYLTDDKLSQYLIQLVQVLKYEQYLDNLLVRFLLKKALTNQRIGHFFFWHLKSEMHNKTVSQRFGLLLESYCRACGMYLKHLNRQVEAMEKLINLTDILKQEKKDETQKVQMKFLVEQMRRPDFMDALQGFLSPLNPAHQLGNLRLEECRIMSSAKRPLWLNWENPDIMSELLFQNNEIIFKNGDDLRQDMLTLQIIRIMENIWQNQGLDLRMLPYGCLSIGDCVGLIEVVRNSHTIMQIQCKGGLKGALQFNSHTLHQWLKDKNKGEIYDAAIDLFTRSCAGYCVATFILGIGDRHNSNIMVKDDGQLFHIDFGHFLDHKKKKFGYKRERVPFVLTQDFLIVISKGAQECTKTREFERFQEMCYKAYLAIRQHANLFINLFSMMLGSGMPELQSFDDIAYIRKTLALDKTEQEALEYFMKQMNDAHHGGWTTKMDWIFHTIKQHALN
Sequence (P27986 whole entry partner): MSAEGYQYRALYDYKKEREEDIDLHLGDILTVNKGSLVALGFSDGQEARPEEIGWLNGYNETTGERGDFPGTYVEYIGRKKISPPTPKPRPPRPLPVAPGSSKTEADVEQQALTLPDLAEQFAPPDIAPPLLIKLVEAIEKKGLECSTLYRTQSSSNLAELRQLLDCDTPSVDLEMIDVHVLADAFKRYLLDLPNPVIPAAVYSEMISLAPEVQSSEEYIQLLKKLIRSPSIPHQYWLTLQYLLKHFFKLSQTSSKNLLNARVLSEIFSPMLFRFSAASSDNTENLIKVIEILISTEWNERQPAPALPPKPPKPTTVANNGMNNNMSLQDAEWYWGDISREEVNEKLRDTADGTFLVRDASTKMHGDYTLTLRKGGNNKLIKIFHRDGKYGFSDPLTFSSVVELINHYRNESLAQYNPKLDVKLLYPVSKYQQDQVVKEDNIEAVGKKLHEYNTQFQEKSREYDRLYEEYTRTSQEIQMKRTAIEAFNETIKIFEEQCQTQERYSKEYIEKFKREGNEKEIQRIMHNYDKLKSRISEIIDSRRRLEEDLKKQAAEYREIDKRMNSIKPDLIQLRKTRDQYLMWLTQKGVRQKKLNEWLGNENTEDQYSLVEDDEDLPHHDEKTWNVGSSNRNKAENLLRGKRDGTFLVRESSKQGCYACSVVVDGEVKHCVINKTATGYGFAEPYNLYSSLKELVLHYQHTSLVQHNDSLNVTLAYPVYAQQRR
assay-notes: ADP-Glo in vitro lipid kinase assay, PI3Kα
Type: biochemical
condition-notes: SI Table 3
readout-label: Maximum activity relative to 1938 (%)
Give bare numbers, in %.

Example cases with answers are listed next.
> print(dat)
                                   compound                           target.of.assay  readout.value
1  COc1cc(Nc2cc(Nc3cccc4c3N(C(C)=O)CC4)ccn2)cc(OC)c1OC  human p110α/p85α (PI3Kα) (Homo sapiens, UniProt P42336)             80
2  COc1cc(N2CCN(C)CC2)ccc1Nc1cc(Nc2cccc3c2N(C(C)=O)CC3)ccn1  human p110α/p85α (PI3Kα) (Homo sapiens, UniProt P42336)            102
3  CCN1CCN(c2ccc(Nc3nccc(Nc4cccc5c4N(C(C)=O)CC5)n3)cc2)CC1  human p110α/p85α (PI3Kα) (Homo sapiens, UniProt P42336)              4

Hey, can you go through the list below and give me Maximum activity relative to 1938 for every item?
1. CC(=O)N1CCc2cccc(Nc3ccnc(Nc4ccccc4)c3)c21
2. CCN1CCN(c2ccc(Nc3cc(Nc4cccc5c4N(C(C)=O)CC5)ccn3)cc2)CC1
3. CCN1CCN(c2ccc(Nc3cc(Nc4ccncn4)ccn3)cc2)CC1

[9, 100, 4]

* * *

target-of-assay: full length p110α/p85α (Homo sapiens, UniProt P42336)
Construct: Full-length human p110α was expressed either in a complex with full-length human p85α (for HTS, biochemistry and HDX-MS); 6xHis tag followed by TEV protease site (N); host or cells: Spodoptera frugiperda Sf9, baculovirus
Sequence (P42336 whole entry): as the sequence (P42336 whole entry) above
Sequence (P27986 whole entry partner): as the sequence (P27986 whole entry partner) above
assay-notes: Surface plasmon resonance
Format: binding
condition-notes: immobilized p110α/p85α; read-out: Kd for PI3Kα by surface plasmon resonance
Experimental: SPR was performed with a Biacore T200, using CM7-sensor chips (Cytiva). Both reference control and analyte channels were equilibrated in HBS-P (Cytiva) supplemented with 5% (v/v) DMSO at 20°C. Full length p110α/p85α was immobilised onto the chip surface via amide coupling using the supplied kit (Cytiva) to reach an RU value of approximately 25,000 RU. Serial dilutions (1:2) of 1938 starting from 500 μM were injected over the chip for 60 s at 30 μL/min, with a 60 sec dissociation time. […]
readout-label: pKd
Numbers only, as −log10 of the molar value.

What measured pKd is associated with CCN1CCN(c2ccc(Nc3cc(Nc4cccc5c4N(C(C)=O)CC5)ccn3)cc2)CC1 on full length p110α/p85α (Homo sapiens, UniProt P42336)?
4.44

* * *

System: PI3Kα-WT MEFs
assay-notes: CellTiter-Glo cell assay, PI3Kα-WT MEFs
Format: cell-based, mouse
condition-notes: Mus musculus; 24h treatment; read-out: EC50 of increase in metabolic activity (ATP content)
readout-label: EC50

Reported EC50, molecule CCN1CCN(c2ccc(Nc3cc(Nc4cccc5c4N(C(C)=O)CC5)ccn3)cc2)CC1 : ____
~0.5 µM

Measured values drawn from paper PMC7614683 for this set.
